Sourced from PubChem BioAssay (NCI)

Kindly state growth inhibition for each of the entries shown.
Protocol text: NCI Yeast Anticancer Drug Screen. Data for the cln2 rad14 strain (AID 165);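 note: 0% = growth equal to vehicle treated cultures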
Measurement parameters: S. cerevisiae cln2 rad14 strain, hits give high values; at 50.0 µM unless noted
The panel holds about 79,000 compounds, 15% with a hit somewhere; the sample as a whole holds those more often. Calls of active or inactive are those of the source. Cut-off read from the data, not from the text of the source: active = growth inhibition above about 70%; inactive = the rest.

# per-item lookup of growth inhibition; items listed below
1. O=[N+]([O-])c1cc(Cl)ccc1S(=O)(=O)N1CCCc2cc(Cl)ccc21
2. CC(C)(C)C(=O)OCC1CCC(n2cnc3c(=O)[nH]c(N)nc32)O1 (stereo not drawn)
3. COc1cc(C=O)c(Cl)cc1OC(C)=O
4. CCOC(=O)c1ccc(N)nc1

["62.1% (inactive)", "3.05% (inactive)", "32.8% (inactive)", "-13% (inactive)"]

# per-item lookup of growth inhibition; items listed below
1. COC(=O)/C=C/c1cccnc1
2. Cc1cc(C(C)(C)C)cc(CNC2CCCCC2)c1O
3. C[C@H]1/C(=C/C(=O)OCCN(C)C)CC[C@H]2[C@H]1C(=O)C[C@H]1C(C)(C)[C@@H](O)CC[C@]21C
4. COC(=O)C(CCC1(C)OCCO1)C(C)=O (stereo not drawn)

["-22.7% (inactive)", "-18% (inactive)", "13.8% (inactive)", "7.65% (inactive)"]

# per-item lookup of growth inhibition; items listed below
1. CN(C)c1ccc(/C=N/Nc2nc3ccccc3c(=O)n2-c2ccccc2)cc1
2. CC1(C)N=C(C(N)=O)c2ncn(Cc3ccccc3)c2N1
3. CC(O)CCC(=O)c1nc2ccccc2s1 (stereo not drawn)
4. CCN(CC)C(=O)Oc1cccc(NC(=O)OC)c1
5. CC1=CC(C)C(C(=O)OCC(C)C)C(C(=O)OCC(C)C)C1 (stereo not drawn)
6. CN(C(=O)Cc1ccccc1)n1cn[n+](CC(=O)OC(C)(C)C)c1
7. CCCCCCCCCCCCOC(=O)NC1c2ccccc2Oc2ccccc21

1: 17.9% (inactive); 2: 18.4% (inactive); 3: -6.3% (inactive); 4: 16.1% (inactive); 5: 1.45% (inactive); 6: -8.35% (inactive); 7: 32.5% (inactive)
